test system: Leishmania infantum; experiment: Antileishmanial activity against intracellular amastigote stage of Leishmania infantum MHOM/MA/67/ITMAP-263 infected in THP1 cells after 120 hrs by giemsa-staining based inverted microscopic mehod; format: functional, organism-based; conditions: MHOM/MA/67/ITMAP-263, THP-1, 120 h
measuredMetric: IC50 (µM)
Quick reminder: number only, in µM, skip the unit.

What value of IC50 has been recorded for this entry: CCCCCCCCCCCCCCCCOP(=O)([O-])OCC[N+](C)(C)C [MILTEFOSINE]
2.4
